Hi there, I'd appreciate the recorded Her2 level for every entry that follows.
- assayed_target: Receptor tyrosine-protein kinase erbB-2 (Homo sapiens)
- protocol: reducers of endogenous Her2 protein level, primary screen, SKBR3 breast tumor cells, AlphaScreen, ATP viability (AID 461);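 further: lower value means less Her2 protein in the cells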
- test_conditions: 18-24 h, at 10 µM, active compounds read low
Report only the number, with the unit % understood.

Asked: Her2 level for C=CCOc1nc(N(C)C)nc(N(C)C)n1 ?
Given back: 87

Asked: Her2 level for COc1ccc(CC(NC(C)=O)C(=O)NC2CCN(c3nc(C)cc(C)c3C#N)CC2)c(OC)c1 (stereo not given) ?
Given back: 100

Asked: Her2 level for COc1cc(=O)[nH]c(SCc2c(F)c(F)c(F)c(F)c2F)n1 ?
Given back: 95.5

Asked: Her2 level for COc1ccc(-c2cc(C(=O)NCc3ccc(Cl)cc3)no2)cc1OC ?
Given back: 88.5

Asked: Her2 level for CCCS(=O)(=O)N1CCC(C(=O)N2CCCC2)CC1 ?
Given back: 93

Asked: Her2 level for CC(C)Cn1c(=O)c(C2=NS(=O)(=O)c3ccccc3N2)c(O)c2ccccc21 ?
Given back: 86.5

Asked: Her2 level for O=C(O)C1CC(=O)N(Cc2ccccc2)C1 (stereo not given) ?
Given back: 96.5

Asked: Her2 level for COc1ccc2c(c1OC)C(=O)OC2C1c2c(cc3c(c2OC)OCO3)CCN1C (stereo not given) ?
Given back: 90.5

Asked: Her2 level for COc1ccccc1N1C(=O)c2ccccc2NC1c1ccncc1 (stereo not given) ?
Given back: 100

Asked: Her2 level for CCOC(=O)N1CCN(c2c(N3CCc4ccccc4C3)c(=O)c2=O)CC1 ?
Given back: 86

Asked: Her2 level for CCOC(=O)c1cc(C)sc1N1C(=O)C2C3C=CC(C3)C2C1=O (stereo not given) ?
Given back: 94.5

Asked: Her2 level for Cc1cc(Nc2ccccc2)n(CCC#N)n1 ?
Given back: 84.5

Asked: Her2 level for CC(C(=O)N1CCCCC1)n1sc2ccccc2c1=O (stereo not given) ?
Given back: 102

Asked: Her2 level for CCCn1c(C)nc2c(c1=O)c1nc3ccccc3nc1n2CCc1ccccc1 ?
Given back: 103

Asked: Her2 level for O=C(CCN1CCOCC1)Nc1cccc(Br)c1 ?
Given back: 86

Asked: Her2 level for O=C(Nc1ccccc1C(F)(F)F)c1cc(S(=O)(=O)N2CCOCC2)ccc1F ?
Given back: 91.5

Asked: Her2 level for Cc1sc2c(c1C)CN(C1CC(C)(C)NC(C)(C)C1)CN2C(=O)c1ccco1 ?
Given back: 80.5

Asked: Her2 level for O=c1c(-c2ccc(Br)cc2)coc2c(CN3CCOCC3)c(O)ccc12 ?
Given back: 80.5

Asked: Her2 level for O=S(=O)(c1ccc2c(c1)nc1n2CCC1)N1CCOCC1 ?
Given back: 87

Asked: Her2 level for O=C(CNC1CCCCCC1)Nc1ccc(S(=O)(=O)NC2CC2)cc1 ?
Given back: 87

Asked: Her2 level for CCOc1ccc2ccccc2c1/C=N/n1cncn1 ?
Given back: 101

Asked: Her2 level for CC(C)(C)OC(=O)NCCc1nnc(SCC(=O)c2ccc(Cl)cc2)o1 ?
Given back: 106

Asked: Her2 level for O=C(Nn1c(C2CC2)nc2ccccc2c1=O)c1ccco1 ?
Given back: 108

Asked: Her2 level for O=C(NC1CCCC1)c1ccc2nc[nH]c2c1 ?
Given back: 94.5

Asked: Her2 level for Cc1cc(C)n(C(=O)CNC(=O)C2COc3ccccc3O2)n1 (stereo not given) ?
Given back: 97.5

The origin of these recorded values is PubChem BioAssay.
